Target System: Rap guanine nucleotide exchange factor 3 (Homo sapiens)
Experiment: Counterscreen qHTS for antagonist of cAMP-regulated guanine nucleotide exchange factor 3 (EPAC1) (AID 1645888);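 further: fluorescence loss as bound BODIPY-GDP is released from Rap1B; % of control where 0% means no effect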
Conditions: Rap1B-BODIPY-GDP nucleotide exchange, fluorescence; series mostly up to 154 µM
Records with an inconclusive call do not appear. Calls of active or inactive are those of the source. The call rests on the fitted dose curve; in most records, active means well fitted inhibition curve with a large enough effect; inconclusive means small, poorly fitted or top-dose-only effect; inactive means no such curve, though single readings can be large or run the other way.
Measurement Kind: activity change, negative = inhibition

* Cc1cccc(C)c1Nc1nn2c(=O)c3cc4c(cc3nc2s1)OCO4 | inactive
* COc1cc2c(cc1OC)C(c1cccc(Cl)c1)CC(=O)N2 (configuration not stated) | inactive
* O=C1N(Cc2ccccc2Cl)c2ccccc2C1(O)c1c[nH]c2ccccc12 (configuration not stated) | inactive
* COc1ccc(OC)c(C2=CC(=O)C[C@H](c3ccc4c(c3)OCO4)C2)c1 | -6.17% [at 30.8 µM] (inactive)
* CCOC(=O)c1ccccc1NC(=O)c1c(C)oc2ncnc(N3CCOCC3)c12 | inactive
* CCSc1nc2c([nH]c3ccccc32)c(=O)n1-c1cccc(OC)c1 | inactive
* CCOC(=O)Cn1nc(C)c(NC(=O)COc2ccccc2[N+](=O)[O-])c1C | -12.5% [at 30.8 µM] (inactive)
* COc1cc(SC)ccc1C(=O)Nc1c(C)cccc1C | -15.6% [at 30.8 µM] (inactive)
* Cc1ccc(C(C[N+](=O)[O-])c2c(-c3ccccc3O)[nH][nH]c2=O)cc1 (configuration not stated) | -0.345% [at 30.8 µM] (inactive)
* Cc1cc(O)cc(C)c1NS(=O)(=O)c1ccc2ccccc2c1 | inactive
* Cc1ccc2oc(=O)n(CCOc3ccccc3C)c2c1 | -6.86% [at 30.8 µM] (inactive)
* Oc1ccc2ccccc2c1C=Nc1ccc(Cl)cn1 | inactive
* CC(C)(C)C1CCc2c(sc3nc(SCC(=O)O)nc(N)c23)C1 (configuration not stated) | -1.53% [at 30.8 µM] (inactive)
* CSc1ncccc1C(=O)OCc1c(F)cccc1Cl | inactive
* Cc1ccc(CNC(=O)c2cccc3c2C(=O)c2ccc(N4CCCCC4)cc2S3(=O)=O)cc1 | -7.83% [at 30.8 µM] (inactive)
* CCCN1CC=C2C(C#N)=C(N)C(C#N)(C#N)C(c3cccc(OC)c3OC)C2C1 (configuration not stated) | inactive
* COc1ccc(-c2nc(N/N=C(\C)c3ccc(O)cc3)c3ccccc3n2)cc1 | 8.99% [at 30.8 µM] (inactive)
* O=C(Nc1nc2ccc(Cl)cc2s1)C1CCCO1 (configuration not stated) | 0.458% [at 30.8 µM] (inactive)
* NS(=O)(=O)c1ccc(N=Nc2c[nH]c(=O)c(O)c2)cc1 | inactive
* Cc1ccccc1C(=O)Nc1cccc(C(=O)N/N=C/c2cc(Cl)cc([N+](=O)[O-])c2O)c1 | inactive
* CCC1(c2ccccc2)NC(=O)N(CC(=O)Nc2ccc(OC)nc2)C1=O (configuration not stated) | -15.6% [at 30.8 µM] (inactive)
* O=S1(=O)NC(c2ccccc2)CC(CC2CCCCC2)O1 (configuration not stated) | -0.437% [at 30.8 µM] (inactive)

----------
Test system: DIV30
Experiment: qHTS profiling for inhibitors of Plasmodium falciparum proliferation (AID 504749); further: nearly all actives have a fitted effect of over 60% in size
Conditions: P. falciparum in erythrocytes, SYBR Green DNA, 72 h; series mostly up to 28.7 µM
Experimental: NIH National Institute of Allergy and Infectious Diseases [NIAID] NIH Chemical Genomics Center [NCGC] […] Because mature erythrocytes lack DNA, only Plasmodium-derived DNA is detected. NCGC Assay Protocol Summary: The SYBR Green viability assay was adapted from a method described previously (Plouffe et al., 2008). […] The following morning, fluorescence intensity at 485(14) nm excitation and 535(25) nm emission wavelengths was measured on an EnVision (Perkin Elmer) plate reader. […]
Results filed as inconclusive are left out. Active and inactive are the calls of the source. Calls follow the shape of the dose curve; as a rule, active = well fitted inhibition curve with a large enough effect; inconclusive = small, poorly fitted or top-dose-only effect; inactive = flat fitted curve, though single readings scatter. Bridge positions count the residues as written; N and C are the ends. Square brackets hold non-standard residues; d marks the D form. Peptide text beside a SMILES is read from it. * marks the point of attachment. Octanoyl(6-Me) = CCC(C)CCCCC(=O)*; Dab = NCC[CH](N)C(=O)O
Possible outcomes: active, inactive

• CO/N=C(/C(=O)N[C@@H]1C(=O)N2C(C(=O)O)=CCS[C@H]12)c1csc(N)n1 = inactive
• CN1CC[C@H](CN2c3ccccc3Sc3ccccc32)C1 = active
• Nc1nc(Cl)nc2c1ncn2C1CC(O)C(CO)O1 (stereo not given) = inactive
• CCC(C)CCCCC(=O)NC(CCN)C(=O)NC(C(=O)NC(CCN)C(=O)NC1CCNC(=O)C(C(C)O)NC(=O)C(CCN)NC(=O)C(CCN)NC(=O)C(CC(C)C)NC(=O)C(Cc2ccccc2)NC(=O)C(CCN)NC1=O)C(C)O (stereo not given) ({Octanoyl(6-Me)}-[Dab]T[Dab][Dab][Dab]FL[Dab][Dab]T; lactam 4-C; configuration not given here) = inactive
• C/C=C\c1ccc(OC)cc1 = inactive
• CCN1/C(=C/C=C/C=C/c2sc3ccccc3[n+]2CC)Sc2ccccc21 = active
• CC(=O)OC1CC2CCC1(C)C2(C)C (stereo not given) = inactive
• CCC(C)n1ncn(-c2ccc(N3CCN(c4ccc(OCC5COC(Cn6cncn6)(c6ccc(Cl)cc6Cl)O5)cc4)CC3)cc2)c1=O (stereo not given) = inactive
• CC1CCC(C(C)C)C(OC(=O)c2ccccc2O)C1 (stereo not given) = inactive
• CC(C)CN(C[C@@H](OP(=O)(O)O)[C@H](Cc1ccccc1)NC(=O)O[C@@H]1CCOC1)S(=O)(=O)c1ccc(N)cc1 = inactive
